- assayedSystem: human dihydroorotate dehydrogenase (HsDHODH) (Homo sapiens)
- Sequence (Q02127 whole entry): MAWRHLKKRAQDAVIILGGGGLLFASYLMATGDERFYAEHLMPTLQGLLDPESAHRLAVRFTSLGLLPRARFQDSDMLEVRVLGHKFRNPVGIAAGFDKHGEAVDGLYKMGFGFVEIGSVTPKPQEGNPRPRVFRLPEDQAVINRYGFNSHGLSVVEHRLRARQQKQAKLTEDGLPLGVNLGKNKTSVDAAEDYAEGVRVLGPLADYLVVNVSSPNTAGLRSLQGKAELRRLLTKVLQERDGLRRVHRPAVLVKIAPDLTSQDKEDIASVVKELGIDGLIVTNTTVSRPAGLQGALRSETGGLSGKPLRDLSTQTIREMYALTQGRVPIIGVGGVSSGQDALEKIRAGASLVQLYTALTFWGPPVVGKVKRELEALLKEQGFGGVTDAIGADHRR
readoutKind: IC50

INSERT INTO measurements (compound, value) VALUES
  ('O=C(/C=C/c1ccc(O)c(O)c1)OCCc1ccccc1 [CAPE, caffeic acid phenethyl ester]', '121 µM');
